Target: S1P1 (Homo sapiens, UniProt P21453)
Sequence (P21453 whole entry): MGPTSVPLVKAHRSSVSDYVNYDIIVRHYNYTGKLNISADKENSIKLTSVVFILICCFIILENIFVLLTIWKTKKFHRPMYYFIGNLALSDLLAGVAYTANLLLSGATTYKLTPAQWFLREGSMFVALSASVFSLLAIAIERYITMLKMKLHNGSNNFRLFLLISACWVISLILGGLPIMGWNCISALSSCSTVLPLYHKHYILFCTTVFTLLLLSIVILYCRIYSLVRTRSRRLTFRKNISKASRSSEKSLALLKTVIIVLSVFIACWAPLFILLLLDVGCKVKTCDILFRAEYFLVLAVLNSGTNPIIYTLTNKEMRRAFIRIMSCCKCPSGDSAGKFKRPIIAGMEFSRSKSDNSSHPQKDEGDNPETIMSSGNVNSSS
Assay: CNG cAMP Assay (Assay 1)
Assay type: cell-based
Design: host or cells: HEK293 cells expressing the CNG channel
Settings: read-out: Assay 1 EC50
Method: Frozen HEK293 cells expressing the CNG channel and S1P1 (BD Biosciences, San Jose, Calif.) were thawed and plated into the wells of a black, clear bottom, 384-well CellBind plate (Corning, Corning, N.Y.) at 14,000 cells per well. […] Test compounds were tested at maximum concentrations of 10 μM. […] The T90/T0 ratio was determined for each concentration of the test compounds. The percent agonist activity was determined as [(test compound−DMSO alone control)/(NECA alone control−DMSO alone control)*100]. […]
As shown below, each of these compounds has a reported EC50 value.

Study these solved cases before continuing.
Known value: S1P1 (Homo sapiens, UniProt P21453) EC50 of the compound "O=C(O)CCc1ccc(-c2noc(-c3cn4cc(C(F)(F)F)cc(Cl)c4n3)n2)cc1Cl" equals ≤ 100 nM

Known value: S1P1 (Homo sapiens, UniProt P21453) EC50 of the compound "Fc1cccc(Cl)c1-c1noc(-c2cn3cc(C(F)(F)F)cc(Cl)c3n2)n1" equals 100 to 500 nM

Known value: S1P1 (Homo sapiens, UniProt P21453) EC50 of the compound N#CC(CC(=O)O)c1ccc(-c2noc(-c3cn4cc(C(F)(F)F)cc(Cl)c4n3)n2)c(Cl)c1 (stereo not shown) equals ≤ 100 nM

Known value: S1P1 (Homo sapiens, UniProt P21453) EC50 of the compound "FC(F)(F)c1cc(Cl)c2nc(-c3nc(-c4ccc5[nH]ccc5c4)no3)cn2c1" equals 100 to 500 nM

Known value: S1P1 (Homo sapiens, UniProt P21453) EC50 of the compound "FC(F)(F)c1cc(Br)c2nc(-c3nc(-c4ccccc4Cl)no3)cn2c1" equals ≤ 100 nM

Known value: S1P1 (Homo sapiens, UniProt P21453) EC50 of the compound "O=C(O)CCc1cc(Cl)c(-c2nc(-c3cn4cc(C(F)(F)F)cc(Cl)c4n3)no2)cc1Cl" equals ≤ 100 nM

Known value: S1P1 (Homo sapiens, UniProt P21453) EC50 of the compound "FC(F)(F)c1cc(Cl)c2nc(-c3nc(-c4cnccc4C(F)(F)F)no3)cn2c1" equals 1000 to 5000 nM

Known value: S1P1 (Homo sapiens, UniProt P21453) EC50 of the compound NCC(O)COc1cc(Cl)c(-c2noc(-c3cn4cc(C(F)(F)F)cc(Cl)c4n3)n2)cc1Cl (stereo not shown) equals ≤ 100 nM

Now consider a different compound.
Known value: S1P1 (Homo sapiens, UniProt P21453) EC50 of the compound CC(Oc1cc(Cl)c(-c2nnc(-c3cn4cc(C(F)(F)F)cc(Cl)c4n3)s2)cc1F)C(=O)O (stereo not shown) equals ≤ 100 nM

Hello, the source for this data is patent US20100160369A1, in case you need it.
